Test system: PXR homodimer (NR concentration 270 nM)
Assay: PBM binding z-score (relative to random genomic background probes); higher = stronger binding; sequences stand for … in GC…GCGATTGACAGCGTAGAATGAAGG
// f strictly below -0.3 in PBM binding z-score; t otherwise

Solved entries (count: 6):
[
  {
    "sequence.chain": "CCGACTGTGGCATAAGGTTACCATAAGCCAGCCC",
    "measurement.target": "PXR homodimer (NR concentration 270 nM)",
    "group.label": "t"
  },
  {
    "sequence.chain": "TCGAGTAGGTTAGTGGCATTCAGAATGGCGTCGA",
    "measurement.target": "PXR homodimer (NR concentration 270 nM)",
    "group.label": "t"
  },
  {
    "sequence.chain": "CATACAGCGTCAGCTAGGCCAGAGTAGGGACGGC",
    "measurement.target": "PXR homodimer (NR concentration 270 nM)",
    "group.label": "f"
  },
  {
    "sequence.chain": "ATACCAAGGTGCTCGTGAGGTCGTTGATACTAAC",
    "measurement.target": "PXR homodimer (NR concentration 270 nM)",
    "group.label": "t"
  },
  {
    "sequence.chain": "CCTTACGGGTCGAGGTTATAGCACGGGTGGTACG",
    "measurement.target": "PXR homodimer (NR concentration 270 nM)",
    "group.label": "t"
  },
  {
    "sequence.chain": "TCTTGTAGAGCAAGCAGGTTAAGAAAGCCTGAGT",
    "measurement.target": "PXR homodimer (NR concentration 270 nM)",
    "group.label": "t"
  }
]

Tell me whether PBM binding z-score is at least -0.3 here: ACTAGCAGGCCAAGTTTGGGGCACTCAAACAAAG
f

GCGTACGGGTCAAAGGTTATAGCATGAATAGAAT , same question.
t

###

Here, each record is paired with measured PBM binding z-score data.
Tested on: PPARa:RXRa (NR concentration 270 nM, RXRa partner concentration 90 nM)
Assay: PBM binding z-score (relative to random genomic background probes); higher = stronger binding; sequences stand for … in GC…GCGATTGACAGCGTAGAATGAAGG

Examples with answers:
[
  {
    "sequence.chain": "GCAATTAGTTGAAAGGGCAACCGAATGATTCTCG",
    "PBM binding z-score": 2.69
  },
  {
    "sequence.chain": "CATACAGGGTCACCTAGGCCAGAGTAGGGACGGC",
    "PBM binding z-score": 5.64
  },
  {
    "sequence.chain": "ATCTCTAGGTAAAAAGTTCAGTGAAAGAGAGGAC",
    "PBM binding z-score": 1.98
  }
]

Entry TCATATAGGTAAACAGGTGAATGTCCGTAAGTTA , system PPARa:RXRa (NR concentration 270 nM, RXRa partner concentration 90 nM): what PBM binding z-score was measured?
2.02

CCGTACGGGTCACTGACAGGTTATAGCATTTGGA , same question.
5.35

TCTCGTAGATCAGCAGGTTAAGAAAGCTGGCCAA , same question.
0.428

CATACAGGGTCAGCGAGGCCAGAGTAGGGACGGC , same question.
5

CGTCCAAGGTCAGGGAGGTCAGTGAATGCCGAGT , same question.
5.2

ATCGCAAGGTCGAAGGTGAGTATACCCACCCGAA , same question.
3.01

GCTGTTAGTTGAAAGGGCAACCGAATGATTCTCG , same question.
2.12

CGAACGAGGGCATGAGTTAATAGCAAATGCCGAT , same question.
1.49

###

System: PPARa:RXRa (NR concentration 270 nM, RXRa partner concentration 90 nM)
Test: PBM binding z-score (relative to random genomic background probes); higher = stronger binding; sequences stand for … in GC…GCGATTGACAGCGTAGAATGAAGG
Here, each record is paired with measured PBM binding z-score data.
Please reply with the number alone, leaving off any unit.

Examples with answers:
[
  {
    "sequence.chain": "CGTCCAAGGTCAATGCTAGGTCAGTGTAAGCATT",
    "PBM binding z-score": 5
  },
  {
    "sequence.chain": "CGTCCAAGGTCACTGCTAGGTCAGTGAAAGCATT",
    "PBM binding z-score": 5.14
  }
]

Please turn your attention to the following entry.
So what's the measured PBM binding z-score for this one? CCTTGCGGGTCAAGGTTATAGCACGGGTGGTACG
4.96

###

Tested on: PPARg:RXRa (NR concentration 180 nM, RXRa partner concentration 90 nM)
Assay: PBM binding z-score (relative to random genomic background probes); higher = stronger binding; sequences stand for … in GC…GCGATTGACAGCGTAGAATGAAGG
Classify on PBM binding z-score using LOW: < 0.8; MID: ≥ 0.8 and < 3; HIGH: ≥ 3

Solved entries (count: 8):
[
  {
    "sequence.chain": "AGAATGAGGTTACTAAGATCAGGGAATTGCGGTC",
    "group.label": "MID"
  },
  {
    "sequence.chain": "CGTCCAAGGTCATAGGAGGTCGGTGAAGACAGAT",
    "group.label": "HIGH"
  },
  {
    "sequence.chain": "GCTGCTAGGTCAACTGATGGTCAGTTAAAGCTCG",
    "group.label": "MID"
  },
  {
    "sequence.chain": "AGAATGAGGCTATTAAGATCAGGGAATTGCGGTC",
    "group.label": "LOW"
  },
  {
    "sequence.chain": "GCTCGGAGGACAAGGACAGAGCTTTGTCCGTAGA",
    "group.label": "LOW"
  },
  {
    "sequence.chain": "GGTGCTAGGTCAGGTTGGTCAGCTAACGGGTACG",
    "group.label": "MID"
  },
  {
    "sequence.chain": "TGAATGAGGTTATAAGATCACGGAACGTTGCAAA",
    "group.label": "MID"
  },
  {
    "sequence.chain": "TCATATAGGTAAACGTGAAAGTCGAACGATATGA",
    "group.label": "MID"
  }
]

Lab log: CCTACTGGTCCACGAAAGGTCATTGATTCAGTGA — assign PBM binding z-score category
MID

CAAACTAGGTCACCGGAAGGTGAAAGTCCGCATG , same question.
HIGH

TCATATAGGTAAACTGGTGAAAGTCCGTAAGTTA , same question.
MID

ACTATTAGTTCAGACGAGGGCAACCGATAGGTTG , same question.
LOW

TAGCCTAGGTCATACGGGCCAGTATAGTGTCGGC , same question.
MID

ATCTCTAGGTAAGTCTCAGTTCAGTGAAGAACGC , same question.
LOW

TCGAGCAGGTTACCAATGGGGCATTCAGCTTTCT , same question.
LOW

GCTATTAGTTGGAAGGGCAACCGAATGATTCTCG , same question.
LOW

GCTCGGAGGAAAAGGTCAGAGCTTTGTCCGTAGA , same question.
MID

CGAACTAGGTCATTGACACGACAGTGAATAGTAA , same question.
HIGH

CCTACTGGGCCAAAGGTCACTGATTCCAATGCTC , same question.
HIGH

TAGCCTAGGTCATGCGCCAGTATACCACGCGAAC , same question.
MID

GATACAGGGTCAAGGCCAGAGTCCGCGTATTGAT , same question.
HIGH

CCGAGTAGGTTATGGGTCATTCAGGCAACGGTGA , same question.
HIGH

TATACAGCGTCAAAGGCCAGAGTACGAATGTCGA , same question.
MID

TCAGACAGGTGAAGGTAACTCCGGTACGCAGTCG , same question.
LOW

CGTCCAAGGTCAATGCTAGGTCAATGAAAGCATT , same question.
HIGH

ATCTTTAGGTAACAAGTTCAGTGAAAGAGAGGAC , same question.
LOW

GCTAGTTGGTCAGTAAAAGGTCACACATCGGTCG , same question.
MID

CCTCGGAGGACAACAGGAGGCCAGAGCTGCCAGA , same question.
LOW

###

Here, each record is paired with measured PBM binding z-score data.
Tested on: RXRa DBDmut IVT, anti-RXR (DBD mutation: RXRa K156A/R161A, NR concentration 90 nM)
Experiment: PBM binding z-score (relative to random genomic background probes); higher = stronger binding; sequences stand for … in GC…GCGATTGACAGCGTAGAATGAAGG
Please reply with the number alone, leaving off any unit.

[
  {
    "sequence.chain": "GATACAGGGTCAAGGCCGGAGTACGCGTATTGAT",
    "PBM binding z-score": 2.23
  },
  {
    "sequence.chain": "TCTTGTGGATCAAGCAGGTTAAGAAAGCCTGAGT",
    "PBM binding z-score": 0.604
  }
]

So what's the measured PBM binding z-score for this one? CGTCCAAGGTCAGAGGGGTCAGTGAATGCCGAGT
3.32

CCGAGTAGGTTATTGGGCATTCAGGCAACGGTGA , same question.
0.421

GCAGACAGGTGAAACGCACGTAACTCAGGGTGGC , same question.
-0.335

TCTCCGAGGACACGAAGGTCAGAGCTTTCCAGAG , same question.
0.665

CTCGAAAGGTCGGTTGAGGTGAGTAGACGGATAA , same question.
0.673

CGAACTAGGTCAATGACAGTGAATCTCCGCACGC , same question.
1.91
